system tested: Aspartate--tRNA(Asp/Asn) ligase (Mycobacterium tuberculosis (strain ATCC 25618 / H37Rv)) (UniProt P9WFW3)
Sequence (P9WFW3 whole entry): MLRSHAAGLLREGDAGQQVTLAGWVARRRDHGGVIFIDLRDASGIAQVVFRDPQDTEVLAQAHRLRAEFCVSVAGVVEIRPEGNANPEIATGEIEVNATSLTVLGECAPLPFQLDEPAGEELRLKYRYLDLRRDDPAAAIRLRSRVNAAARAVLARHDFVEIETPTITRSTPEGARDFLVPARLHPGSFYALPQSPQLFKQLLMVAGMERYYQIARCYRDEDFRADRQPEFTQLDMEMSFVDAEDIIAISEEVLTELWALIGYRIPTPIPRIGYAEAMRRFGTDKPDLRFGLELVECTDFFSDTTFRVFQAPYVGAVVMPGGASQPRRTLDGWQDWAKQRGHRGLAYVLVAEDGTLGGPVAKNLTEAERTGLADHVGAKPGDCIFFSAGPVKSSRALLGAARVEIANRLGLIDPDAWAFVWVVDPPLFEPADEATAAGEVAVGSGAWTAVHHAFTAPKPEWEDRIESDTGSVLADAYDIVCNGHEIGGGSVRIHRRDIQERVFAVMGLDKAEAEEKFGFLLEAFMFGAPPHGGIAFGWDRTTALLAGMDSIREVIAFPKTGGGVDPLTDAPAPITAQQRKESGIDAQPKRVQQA
test description: Assay for Asp RNA synthetase-1 from Mycobacterium tuberculosis
Type: functional
Design: scale not given: in the data most compounds retested in dose-response had high values
measurement conditions: 30 µM
Items are presented alongside their recorded Percent Effect.

>  <molecule>
Cc1cnn(CC2CCCCN2CC(=O)Nc2c(C)n[nH]c2C)c1 (stereo not drawn)

>  <Percent Effect [%]>
-1.88

$$$$
>  <molecule>
CC(C)c1nc2n(n1)CC(NCc1nnc(-c3ccco3)o1)CC2 (stereo not drawn)

>  <Percent Effect [%]>
-3.46

$$$$
>  <molecule>
CN(C)C(=O)N1C[C@@H]2COC[C@]2(CNS(C)(=O)=O)C1

>  <Percent Effect [%]>
-0.382

$$$$
>  <molecule>
c1ccc(CC2CCN(Cc3ccnc(-c4cccnc4)n3)CC2)cc1

>  <Percent Effect [%]>
0.908

$$$$
>  <molecule>
c1cnc(-c2nc(CN3CCOC(Cn4cncn4)C3)cs2)nc1 (stereo not drawn)

>  <Percent Effect [%]>
9.26

$$$$
>  <molecule>
NC(=O)C(CNC(=O)COCC(F)(F)F)Cc1ccc(F)cc1 (stereo not drawn)

>  <Percent Effect [%]>
0.689

$$$$
>  <molecule>
Cc1nc(C2CCCN2CC(=O)NCCc2ccsc2)no1 (stereo not drawn)

>  <Percent Effect [%]>
1.22

$$$$
>  <molecule>
CN1CCCC(c2cccc(Cc3ccccc3Cl)n2)C1 (stereo not drawn)

>  <Percent Effect [%]>
-5.43

$$$$
>  <molecule>
COc1cccc2ccn(CCC(=O)N3CCCC(C(=O)O)C3)c12 (stereo not drawn)

>  <Percent Effect [%]>
9.22

$$$$
>  <molecule>
O=C(N1CCOCC1)N1CCc2ncnc(NC3CC3)c2CC1

>  <Percent Effect [%]>
6.32

$$$$
>  <molecule>
Cc1nn(C)c(C)c1NC(=O)CCn1ncc2c(C)cccc21

>  <Percent Effect [%]>
10.1

$$$$
>  <molecule>
COC(=O)CCC(=O)N1CCc2[nH]nc(-c3ccc(F)c(F)c3)c2C1

>  <Percent Effect [%]>
5.15

$$$$
>  <molecule>
CN(C)C(=O)CC1CC2(CCN(c3ncccn3)CC2)c2ccccc21 (stereo not drawn)

>  <Percent Effect [%]>
2.97

$$$$
>  <molecule>
Cc1cnn(C2CCCN(C(=O)c3ccc(N(C)C)nn3)C2)c1 (stereo not drawn)

>  <Percent Effect [%]>
-1.49

$$$$
>  <molecule>
Cc1nc(CN2CCCC(NCCOCC(F)(F)F)C2)no1 (stereo not drawn)

>  <Percent Effect [%]>
-8.65

$$$$
>  <molecule>
O=C(c1cc(=O)[nH]c(=O)[nH]1)N1CCCCC1c1ccc(F)cc1 (stereo not drawn)

>  <Percent Effect [%]>
0.947

$$$$
>  <molecule>
O=C(Cn1c(=O)n(Cc2ccco2)c2ncccc21)Nc1ccccn1

>  <Percent Effect [%]>
8.2

$$$$
>  <molecule>
CCc1noc(C(C)N2CCN(c3ccc(C#N)cc3F)CC2)n1 (stereo not drawn)

>  <Percent Effect [%]>
1.23

$$$$
